# measuredTarget: human sirtuin-1 (Sirt1) (Homo sapiens)
# Construct: purchased BioMol, Hamburg, Germany
# Sequence (Q96EB6 whole entry): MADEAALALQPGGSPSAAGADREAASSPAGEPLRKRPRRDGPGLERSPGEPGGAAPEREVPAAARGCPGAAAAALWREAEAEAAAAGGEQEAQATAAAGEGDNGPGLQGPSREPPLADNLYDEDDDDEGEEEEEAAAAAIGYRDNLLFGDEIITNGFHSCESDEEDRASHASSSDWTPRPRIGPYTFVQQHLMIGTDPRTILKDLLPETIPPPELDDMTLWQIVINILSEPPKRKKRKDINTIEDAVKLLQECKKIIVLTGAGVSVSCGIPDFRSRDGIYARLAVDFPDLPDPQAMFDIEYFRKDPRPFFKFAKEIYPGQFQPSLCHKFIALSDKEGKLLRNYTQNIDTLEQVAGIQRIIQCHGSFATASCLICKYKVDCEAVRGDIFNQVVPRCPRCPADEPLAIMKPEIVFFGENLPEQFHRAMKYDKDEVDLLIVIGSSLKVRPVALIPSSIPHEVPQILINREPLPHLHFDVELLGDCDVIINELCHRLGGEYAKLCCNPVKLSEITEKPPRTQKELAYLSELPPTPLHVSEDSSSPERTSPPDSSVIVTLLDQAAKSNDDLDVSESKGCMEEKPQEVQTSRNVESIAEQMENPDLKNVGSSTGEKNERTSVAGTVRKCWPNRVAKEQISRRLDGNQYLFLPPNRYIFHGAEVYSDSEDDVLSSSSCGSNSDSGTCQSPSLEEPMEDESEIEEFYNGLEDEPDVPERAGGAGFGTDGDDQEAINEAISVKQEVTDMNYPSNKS
# assayComment: SIRT1 Fluorimetric Drug Discovery Kit, Sirt1 activation
# Format: biochemical
# conditionSet: 10 μM; control = trans-resveratrol
True means recorded Fold increase in sirtl activity versus control is 2 or above; False means it is below 2.

Look over these answered cases.
- compound: "O=C(O)c1c(O)cccc1/C=C/c1ccc(OC2OC(CO)C(O)C(O)C2O)cc1 (centres unmarked)"
  assignedClass: "True"
- compound: "O=C(O)c1c(O)cccc1/C=C/c1ccc(O)cc1"
  assignedClass: "True"
- compound: "CCOC(=O)c1c(O)cccc1/C=C/c1ccc(OCC)cc1"
  assignedClass: "True"

Kindly consider the entry below.
Threshold query (Fold increase in sirtl activity versus control >= 2) on COC(=O)c1c(/C=C/c2ccc(OC)cc2)cccc1OC
False
